Listing of recorded Ki by entry.
biological target: UniProtKB P61964
endpointName: Ki (nM)

# compound, measurementQualifier, recordedResult
rows = [
    ("COc1cnc2cncc(N3CCc4c(cc(Cn5ccnc5)cc4-c4cn(C)nc4C(F)(F)F)C3=O)c2c1 [Example 214]", "<", 0.02),
    ("COc1cc(-c2cn[nH]c2)c2nc(C)cc(N3CCc4c(cc(Cn5ccnc5)cc4-c4cn(C)nc4C(F)(F)F)C3=O)c2c1 [Example 201]", "=", 0.023),
    ("Cc1cc(N2CCc3c(cc(Cn4ccnc4)cc3-c3cn(C)nc3C(F)(F)F)C2=O)c2cc(N3CC(F)C3)cc(C#N)c2n1 [Example 203]", "=", 0.025),
    ("COc1ccc2c(c1)[C@@H](N1CCc3c(cc(Cn4ccnc4C)cc3-c3cn(C)nc3C(F)(F)F)C1=O)CCO2 [Example 69]", "<", 0.02),
    ("CCc1cc(C(=O)NCCNC(=O)c2ccncc2)c2nccc(N3CCc4c(cc(Cn5ccnc5)cc4-c4cn(C)nc4C(F)(F)F)C3=O)c2c1 [Example 213]", "<", 0.02),
    ("COc1ccc(N2CCc3c(cc(Cn4ccnc4C)cc3-c3cn(C)nc3C(F)(F)F)C2=O)c2cc(C)cnc12 [Example 11]", "=", 0.035),
    ("COc1ccc2nc(C)cc(N3CCc4c(cc(Cn5ccnc5C)cc4-c4cn(C)nc4C(F)(F)F)C3=O)c2c1 [Example 8]", "=", 0.026),
    ("Cc1ccc2c(N3CCc4c(cc(Cn5ccnc5)cc4-c4cn(C)nc4C(F)(F)F)C3=O)cccc2n1 [Example 103]", "=", 0.029),
    ("COc1cc(Br)c2nccc(N3CCc4c(cc(Cn5ccnc5)cc4-c4cn(C)nc4C(F)(F)F)C3=O)c2c1 [Example 29]", "<", 0.02),
    ("CCc1cc(OC)c2nc(C)cc(N3CCc4c(cc(Cn5ccnc5)cc4-c4cn(C)nc4C(F)(F)F)C3=O)c2c1 [Example 120]", "=", 0.023),
    ("COc1cc(C(=O)NC2CCN(C)CC2)c2nc(C)cc(N3CCc4c(cc(Cn5ccnc5)cc4-c4cn(C)nc4C(F)(F)F)C3=O)c2c1 [Example 189]", "<", 0.02),
    ("Cc1ccc2cncc(N3CCc4c(cc(Cn5ccnc5C)cc4-c4cn(C)nc4C(F)(F)F)C3=O)c2c1 [Example 10]", "=", 0.029),
    ("CN1CC[C@H](N2CCc3c(cc(Cn4ccnc4)cc3-c3cn(C)nc3C(F)(F)F)C2=O)c2cc(Cl)cnc21 [Example 73]", "<", 0.02),
    ("Cc1ccc2cncc(N3CCc4c(cc(Cc5cnc[nH]5)cc4-c4cn(C)nc4C(F)(F)F)C3=O)c2c1 [Example 55]", "<", 0.02),
    ("COc1cc(N2CCOCC2)c2nccc(N3CCc4c(cc(Cn5ccnc5)cc4-c4cn(C)nc4C(F)(F)F)C3=O)c2c1 [Example 30]", "<", 0.02),
    ("COc1cc(C(=O)NS(C)(=O)=O)c2nc(C)cc(N3CCc4c(cc(Cn5ccnc5)cc4-c4cn(C)nc4C(F)(F)F)C3=O)c2c1 [Example 181]", "=", 0.04),
    ("CCc1cc(C(=O)NCCNC(=O)c2cnccn2)c2nccc(N3CCc4c(cc(Cn5ccnc5)cc4-c4cn(C)nc4C(F)(F)F)C3=O)c2c1 [Example 209]", "<", 0.02),
    ("COc1ccc2c(=O)[nH]cc(N3CCc4c(cc(Cn5ccnc5)cc4-c4cn(C)nc4C(F)(F)F)C3=O)c2c1 [Example 98]", "=", 0.059),
    ("Cn1cc(-c2cc(Cn3ccnc3)cc3c2CCN(c2cccc4ncc(C5CC5)cc24)C3=O)c(C(F)(F)F)n1 [Example 130]", "=", 0.051),
    ("Cc1ccc2nccc(N3CCc4c(cc(Cn5ccnc5)cc4-c4cn(C)nc4C(F)(F)F)C3=O)c2c1 [Example 15]", "=", 0.026),
    ("CCn1cc(-c2cc(Cn3ccnc3C)cc3c2CCN([C@H]2CCOc4ccc(OC)cc42)C3=O)c(C(F)(F)F)n1 [Example 74]", "<", 0.02),
    ("COc1cc(CN2CCN3CCOC[C@@H]3C2)c2nccc(N3CCc4c(cc(Cn5ccnc5)cc4-c4cn(C)nc4C(F)(F)F)C3=O)c2c1 [Example 141]", "=", 0.07),
    ("COc1cnc2c(c1)[C@@H](N1CCc3c(cc(Cn4ccnc4C)cc3-c3cn(C)nc3C(F)(F)F)C1=O)CCC2 [Example 68]", "<", 0.02),
    ("Cc1nccn1Cc1cc2c(c(-c3cn(C)nc3C(F)(F)F)c1)CCN(C1COc3ccccc31)C2=O (stereo not drawn) [Example 77]", "<", 0.02),
    ("COc1cc2c(N3CCc4c(cc(Cn5ccnc5)cc4-c4cn(C)nc4C(F)(F)F)C3=O)cc(C)cc2nc1C [Example 155]", "=", 0.029),
    ("COc1cc(COC2CC2)c2nccc(N3CCc4c(cc(Cn5ccnc5)cc4-c4cn(C)nc4C(F)(F)F)C3=O)c2c1 [Example 167]", "=", 0.034),
    ("CCc1cnc2cc(C)cc(N3CCc4c(cc(Cn5ccnc5)cc4-c4cn(C)nc4C(F)(F)F)C3=O)c2c1 [Example 129]", "=", 0.029),
]
